Experiment Description: High-temperature test (60° C.), stability study;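 note: samples kept uncovered in dishes at 60 °C for up to 10 days and examined on Day 5 and Day 10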
Assay type: physicochemical
Measurement Setup: open-stored, Day 5
Assign Melting point Day 5 to each entry below.

Provide Melting point Day 5 values for the following items, in order.
1. Cc1cc(S(=O)(=O)Nc2ccc(N)cc2)c2c(C)ccc(C(C)C)cc1-2
2. COc1ccc(NS(=O)(=O)c2cc(C)c3cc(C(C)C)ccc(C)c2-3)c(OC)c1
3. Cc1cc(S(=O)(=O)Nc2cccc3ccccc23)c2c(C)ccc(C(C)C)cc1-2
4. Cc1cc(S(=O)(=O)NC(C)C)c2c(C)ccc(C(C)C)cc1-2

Result:
1: 88.0-89.0 °C; 2: 114.5-116.0 °C; 3: 141.5-142.5 °C; 4: 127.5-129.5 °C

Every entry's value here was drawn from patent US9376382B2.
